Test system: Hedgehog protein signaling pathway
Assay Summary: Inhibition of Shh-induced differentiation of C3H10T1/2 cells (alkaline phosphatase activity, OD 415 nm)
Format: cell-based, mouse
Cond: C3H10T1/2 cells transfected with Shh plasmid pRK5, treated 5 days, 1 nM to 10 μM; alkaline phosphatase activity; mean±standard error (n=4), two experiments; read-out: concentration that inhibits 50% of cell differentiation (IC50)
Protocol: The differentiation of the C3H10T1/2 cells, which is accompanied by induction of alkaline phosphatase activity, is then evaluated by measuring the optical density at 415 nm, in the presence of the alkaline phosphatase substrate, para-nitrophenyl phosphate. The values indicated correspond to the mean±standard error (n=4), and […]
pIC50: −log10 of the molar value.

[
  {
    "Chemical Smiles": "CC#C[C@]1(O)CC[C@H]2[C@@H]3CCC4=CC(=O)CCC4=C3[C@@H](c3ccc(N(C)C)cc3)C[C@@]21C",
    "pIC50": 5.43
  }
]
